Value source: ChEMBL document CHEMBL3352499

# log10 MIC annotations
System: Candida albicans
Test: Antimicrobial activity against Candida albicans NCIM-3471 after 20 hrs by two fold serial macrodilution technique
Type: functional
Details: NCIM-3471, 20 h
Quick note: numbers are log10 of MIC, with µg/mL as the unit.

See these solved cases before continuing.
Compound | log10 MIC
Clc1ccc(COC(Cn2ccnc2)c2ccc(Cl)cc2Cl)c(Cl)c1 (stereo unspecified) [MICONAZOLE] | 0.51
O=C1CSC(c2ccc(Cl)cc2)N1c1ccc(Cl)cc1O (stereo unspecified) | 1.85
O=C1CSC(c2cccs2)N1c1ccc(Cl)cc1O (stereo unspecified) | 2.00

Incoming: API: value(readout= log10 MIC, system= Candida albicans, query= O=C1CSC(c2ccc(F)cc2)N1c1ccc(Cl)cc1O (stereo unspecified) )
Outgoing: 1.81

Incoming: Same again, this time with COc1ccc(C2SCC(=O)N2c2ccc(Cl)cc2O)c(OC)c1 (stereo unspecified)
Outgoing: 0.48

Incoming: Try this compound too: O=C1CSC(c2ccccc2Cl)N1c1ccc(Cl)cc1O (stereo unspecified)
Outgoing: 1.74

Incoming: // repeat for O=C1CSC(c2ccccc2)N1c1ccc(Cl)cc1O (stereo unspecified) and report
Outgoing: 1.78

Incoming: What would you report for O=C1CSC(c2cccc(F)c2)N1c1ccc(Cl)cc1O (stereo unspecified) ?
Outgoing: 1.98

Incoming: // next record O=C1CSC(c2ccc(Cl)cc2Cl)N1c1ccc(Cl)cc1O (stereo unspecified)
Outgoing: 1.95

---

Test system: Salmonella typhimurium
Assay: Bactericidal activity against […] after 72 hrs by two fold serial macrodilution technique
Assay type: functional, Salmonella enterica subsp. enterica serovar Typhimurium
Settings: Salmonella enterica
With a cut-off of 100 µg/mL, any MBC strictly below it is called rule met; any MBC meeting it or above is called rule not met.

Field: example entries. Status: answers known.
Compound | System tested | Category label
N#Cc1ccc(C2SCC(=O)N2c2ccc(Cl)cc2O)cc1 (stereo unspecified) | Salmonella typhimurium | rule not met
O=C1CSC(c2ccccn2)N1c1ccc(Cl)cc1O (stereo unspecified) | Salmonella typhimurium | rule not met
O=C1CSC(c2ccc(F)cc2)N1c1ccc(Cl)cc1O (stereo unspecified) | Salmonella typhimurium | rule not met
COc1ccc(C2SCC(=O)N2c2ccc(Cl)cc2O)c(OC)c1 (stereo unspecified) | Salmonella typhimurium | rule met

Incoming: Below 100 µg/mL on MBC? Entry O=C1CSC(c2ccc(Cl)cc2)N1c1ccc(Cl)cc1O (stereo unspecified)
Outgoing: rule not met

Incoming: One more compound: CC1(C)S[C@@H]2[C@H](NC(=O)[C@H](N)c3ccccc3)C(=O)N2[C@H]1C(=O)O [AMPICILLIN]
Outgoing: rule met

---

System: HeLa
Assay: Cytotoxicity against human HeLa cells by SRB method
Format: cell-based
Value type: IC50 (µM)
Please respond with the number in µM and leave the unit unwritten.

Molecule | System tested | IC50 [µM]
O=C1CSC(c2cccc(F)c2)N1c1ccc(Cl)cc1O (stereo unspecified) | HeLa | 67.3
O=C1CSC(c2ccc(O)cc2)N1c1ccc(Cl)cc1O (stereo unspecified) | HeLa | 63.8
N#Cc1ccc(C2SCC(=O)N2c2ccc(Cl)cc2O)cc1 (stereo unspecified) | HeLa | 83.2
O=C1CSC(c2ccc(Cl)cc2Cl)N1c1ccc(Cl)cc1O (stereo unspecified) | HeLa | 49.5
O=C1CSC(c2ccc(F)cc2)N1c1ccc(Cl)cc1O (stereo unspecified) | HeLa | 72.4
O=C1CSC(c2cccs2)N1c1ccc(Cl)cc1O (stereo unspecified) | HeLa | 66.6

Incoming: IC50 for O=C1CSC(c2ccc(Cl)cc2)N1c1ccc(Cl)cc1O (stereo unspecified) ?
Outgoing: 64.4

Incoming: What do you get for COc1ccc(C2SCC(=O)N2c2ccc(Cl)cc2O)c(OC)c1 (stereo unspecified) ?
Outgoing: 68.2

Incoming: What about COc1ccc(C2SCC(=O)N2c2ccc(Cl)cc2O)cc1 (stereo unspecified) ?
Outgoing: 51.6

Incoming: Lookup Cc1ncsc1C1SCC(=O)N1c1ccc(Cl)cc1O (stereo unspecified)
Outgoing: 78.5

---

Tested on: Cryptococcus neoformans
Assay: Antimicrobial activity against Cryptococcus neoformans NCIM-3378 after 20 hrs by two fold serial macrodilution technique
Assay type: functional
Conditions: NCIM-3378, 20 h
Measured MIC determines class: Low = under 60 µg/mL, Medium = from 60 µg/mL up to 90 µg/mL, High = 90 µg/mL and over

Completed entries (count: 9):
Molecule | Category label
O=C1CSC(c2ccccc2)N1c1ccc(Cl)cc1O (configuration not stated) | Medium
Clc1ccc(COC(Cn2ccnc2)c2ccc(Cl)cc2Cl)c(Cl)c1 (configuration not stated) [MICONAZOLE] | Low
O=C1CSC(c2ccc(Cl)cc2)N1c1ccc(Cl)cc1O (configuration not stated) | High
O=C1CSC(c2ccc(Cl)cc2Cl)N1c1ccc(Cl)cc1O (configuration not stated) | High
O=C1CSC(c2cccs2)N1c1ccc(Cl)cc1O (configuration not stated) | High
COc1ccc(C2SCC(=O)N2c2ccc(Cl)cc2O)c(OC)c1 (configuration not stated) | Medium
N#Cc1ccc(C2SCC(=O)N2c2ccc(Cl)cc2O)cc1 (configuration not stated) | Medium
COc1ccc(C2SCC(=O)N2c2ccc(Cl)cc2O)cc1 (configuration not stated) | Medium
O=C1CSC(c2cccc(F)c2)N1c1ccc(Cl)cc1O (configuration not stated) | Medium

Incoming: Band for Cc1ncsc1C1SCC(=O)N1c1ccc(Cl)cc1O (configuration not stated) ?
Outgoing: Low

---

System: Cryptococcus neoformans
Assay: Antimicrobial activity against Cryptococcus neoformans NCIM-3378 after 20 hrs by two fold serial macrodilution technique
Type: functional
Conditions: NCIM-3378, 20 h
Reported MIC is given for each of the following molecules.
The answer is to be given in µg/mL; state only the numeric part.

Reference set, count: 3
Molecule | Unit string | Recorded measurement
OC(Cn1cncn1)(Cn1cncn1)c1ccc(F)cc1F | µg/mL | 6.25
O=C1CSC(c2ccccn2)N1c1ccc(Cl)cc1O (centres undefined) | µg/mL | 75
O=C1CSC(c2ccccc2Cl)N1c1ccc(Cl)cc1O (centres undefined) | µg/mL | 90

# ---- query molecule ----
Incoming: What does the data say about its MIC? Entry: O=C1CSC(c2ccc(F)cc2)N1c1ccc(Cl)cc1O (centres undefined)
Outgoing: 90

---

Tested on: Salmonella typhimurium
Assay: Bactericidal activity against […] after 72 hrs by two fold serial macrodilution technique
Format: functional, Salmonella enterica subsp. enterica serovar Typhimurium
Conditions: Salmonella enterica
Value type: log10 MBC (log10 of the value in µg/mL)
Scale: log10; quantity: MBC; unit before log: µg/mL

Worked examples, 5 compounds total:
Compound | log10 MBC
O=C1CSC(c2cccc(F)c2)N1c1ccc(Cl)cc1O (stereo not given) | 2.19
O=C1CSC(c2ccccc2)N1c1ccc(Cl)cc1O (stereo not given) | 2.08
Cc1ncsc1C1SCC(=O)N1c1ccc(Cl)cc1O (stereo not given) | 1.60
O=C1CSC(c2ccccc2Cl)N1c1ccc(Cl)cc1O (stereo not given) | 2.13
O=C1CSC(c2ccc(O)cc2)N1c1ccc(Cl)cc1O (stereo not given) | 1.65

Incoming: What measured log10 MBC goes with O=C1CSC(c2ccc(Cl)cc2Cl)N1c1ccc(Cl)cc1O (stereo not given) ?
Outgoing: 2.19

Incoming: Now the compound COc1ccc(C2SCC(=O)N2c2ccc(Cl)cc2O)cc1 (stereo not given)
Outgoing: 2.04

Incoming: And what about the compound O=C1CSC(c2ccc([N+](=O)[O-])cc2)N1c1ccc(Cl)cc1O (stereo not given) ?
Outgoing: 2.13

Incoming: Field entry: O=C1CSC(c2cccs2)N1c1ccc(Cl)cc1O (stereo not given)
Outgoing: 2.19

Incoming: Ok, now "O=C(O)c1cn(C2CC2)c2cc(N3CCNCC3)c(F)cc2c1=O"
Outgoing: 0.90

---

System: HeLa
Experiment: Cytotoxicity against human HeLa cells by SRB method
Format: cell-based
Measured pIC50, listed per entry.
Answer as the number alone; pIC50 is minus log10 of concentration in mol/L.

Consider the reported pIC50 for these compounds:
Compound | pIC50
O=C1CSC(c2ccc([N+](=O)[O-])cc2)N1c1ccc(Cl)cc1O (centres undefined) | 4.28
O=C1CSC(c2ccccc2Cl)N1c1ccc(Cl)cc1O (centres undefined) | 4.20
O=C1CSC(c2ccccn2)N1c1ccc(Cl)cc1O (centres undefined) | 4.06

Now, please, on to the next compound.
Incoming: Entry O=C1CSC(c2ccccc2)N1c1ccc(Cl)cc1O (centres undefined) has what pIC50?
Outgoing: 4.20

---

Tested on: Escherichia coli
Experiment: Antimicrobial activity against Escherichia coli NCIM-2256 after 20 hrs by two fold serial macrodilution technique
Assay type: functional
Details: NCIM-2256, 20 h
Catalogue of MIC readings, one per entry.
// note: answer is a bare numeric in µg/mL

Some compounds with recorded MIC:
Compound | System tested | Recorded measurement
O=C1CSC(c2ccc([N+](=O)[O-])cc2)N1c1ccc(Cl)cc1O (stereo unspecified) | Escherichia coli | 90
CC1(C)S[C@@H]2[C@H](NC(=O)[C@H](N)c3ccccc3)C(=O)N2[C@H]1C(=O)O | Escherichia coli | 12.5
COc1ccc(C2SCC(=O)N2c2ccc(Cl)cc2O)cc1 (stereo unspecified) | Escherichia coli | 35
O=C1CSC(c2ccccc2Cl)N1c1ccc(Cl)cc1O (stereo unspecified) | Escherichia coli | 80
O=C1CSC(c2ccccn2)N1c1ccc(Cl)cc1O (stereo unspecified) | Escherichia coli | 90

Incoming: # input compound: O=C1CSC(c2ccccc2)N1c1ccc(Cl)cc1O (stereo unspecified) ; wanted: its MIC
Outgoing: 65

Incoming: For N#Cc1ccc(C2SCC(=O)N2c2ccc(Cl)cc2O)cc1 (stereo unspecified) then?
Outgoing: 90

Incoming: And the next one, O=C1CSC(c2ccc(O)cc2)N1c1ccc(Cl)cc1O (stereo unspecified) ?
Outgoing: 20

Incoming: Same lookup for O=C1CSC(c2ccc(F)cc2)N1c1ccc(Cl)cc1O (stereo unspecified) , please.
Outgoing: 70

Incoming: Ok, now Cc1ncsc1C1SCC(=O)N1c1ccc(Cl)cc1O (stereo unspecified)
Outgoing: 15

Incoming: Quick one: O=C1CSC(c2cccc(F)c2)N1c1ccc(Cl)cc1O (stereo unspecified)
Outgoing: 70

Incoming: Lookup O=C1CSC(c2cccs2)N1c1ccc(Cl)cc1O (stereo unspecified)
Outgoing: 85

Incoming: Note, next up: COc1ccc(C2SCC(=O)N2c2ccc(Cl)cc2O)c(OC)c1 (stereo unspecified)
Outgoing: 30

Incoming: Another compound to look at: "O=C(O)c1cn(C2CC2)c2cc(N3CCNCC3)c(F)cc2c1=O"
Outgoing: 7.5

Incoming: Try the compound O=C1CSC(c2ccc(Cl)cc2Cl)N1c1ccc(Cl)cc1O (stereo unspecified)
Outgoing: 70

Incoming: Now consider O=C1CSC(c2ccc(Cl)cc2)N1c1ccc(Cl)cc1O (stereo unspecified) .
Outgoing: 50
